TEST_TARGET: sHLA-A*0201 (Homo sapiens, UniProt P04439, D140Y/D185E/D98H/E176V/E277Q/G131W/G231S/I119V/I121R/I166T/I218V/L300P/L318F/N151K/N90K/P208A/P217A/Q86G/Q94H/R138H/R169H/T345S)
TEST_SUMMARY: biochemical
Type: binding
Parameters: contained the leader peptide, as well as the α1, α2, and α3 coding domains of the HLA heavy chain; made in house; β2m from Fitzgerald Industries International
CONDITION_LABEL: IC50 within the different tracer systems
Ends that are not written are not given here.
REPORTED_METRIC: IC50

Ask | Entry `KLGEFYNQMM` needs its IC50 filled in; supply it.
Reply | 2.48 to 10.5 µM

---

TEST_TARGET: sHLA-A*0201 (Homo sapiens, UniProt P04439, D140Y/D185E/D98H/E176V/E277Q/G131W/G231S/I119V/I121R/I166T/I218V/L300P/L318F/N151K/N90K/P208A/P217A/Q86G/Q94H/R138H/R169H/T345S)
TEST_SUMMARY: biochemical
Type: binding
Parameters: contained the leader peptide, as well as the α1, α2, and α3 coding domains of the HLA heavy chain; made in house; β2m from Fitzgerald Industries International
CONDITION_LABEL: IC50 with different pFITC reference peptides
Ends that are not written are not given here.
REPORTED_METRIC: IC50

Ask | Given the sequence `KLGEFYNQMM` , write its reported IC50.
Reply | 2.48 to 10.5 µM
